Cited source for all entries: PubChem BioAssay (NCATS)

ASSAY_REMARKS: Stat Signaling Pathway (AID 446);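 further: ME-180 cervical cancer cells given 40 pM IL-6 alongside compound; SIE-controlled beta-lactamase reporter measured as 460/530 nm FRET emission ratio; on the % scale 0 is the no-effect control and ±100 the full control effect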
CONDITION_NOTES: ME-180 (cervical carcinoma) SIE beta-lactamase reporter, IL-6 stimulated, 5 h; at 7.69 µM (top of the series) unless noted
Results filed as inconclusive are left out. Active and inactive are the calls of the source. The call rests on the fitted dose curve; in most records, active means well fitted curve in either direction with a large enough effect (not every such curve was filed as active); inconclusive means small, poorly fitted or top-dose-only effect, or another doubt; inactive means flat fitted curve, though single readings scatter.
Reported activity, negative = inhibition by item:

Check out these entries, answers already filled in.
| CPD_SMILES | activity, negative = inhibition |
| --- | --- |
| Cn1cc(-c2nc3cnc(N4CCNCC4)nc3n(C)c2=O)c2ccccc21 | 25.8% (inactive) |
| COCCn1c(=O)c(-c2cccc(C#N)c2)nc2cnc(Oc3ccccc3)nc21 | -11.3% (inactive) |
| COc1ncc2nc(CCc3ccccc3)c(=O)n(C3CC3)c2n1 | -2.79% (inactive) |

Query :: For the compound Cc1noc(C)c1C(=O)N1CCC[C@@]2(CCN(Cc3ccccc3)C2)C1 , give its reported activity, negative = inhibition.
Result :: 3.42% (inactive)

Query :: For the compound CS(=O)(=O)N1CCC2(CCN(c3cccc(-c4ccccc4)c3)CC2)CC1 , give its reported activity, negative = inhibition.
Result :: -21% (inactive)

Query :: For the compound O=S(=O)(c1ccccc1)N1CCC2(CC1)CN(c1ncccn1)C2 , give its reported activity, negative = inhibition.
Result :: -1.43% (inactive)

Query :: For the compound CCNc1ncc2nc(C)c(=O)n(Cc3cccs3)c2n1 , give its reported activity, negative = inhibition.
Result :: -7.43% (inactive)

Query :: For the compound O=C(c1cccc(F)c1)N1CCC2(CCN(Cc3cc(C(F)(F)F)cc(C(F)(F)F)c3)CC2)CC1 , give its reported activity, negative = inhibition.
Result :: 9.15% (inactive)

Query :: For the compound Cc1noc(C)c1C(=O)N1CCC2(CCCN(C(c3ccccc3)c3ccccc3)C2)CC1 , give its reported activity, negative = inhibition.
Result :: -11.6% (inactive)

Query :: For the compound CS(=O)(=O)N1CCC[C@@]2(CCN(Cc3nccs3)C2)C1 , give its reported activity, negative = inhibition.
Result :: 4.77% (inactive)

Query :: For the compound COc1ccc(NC(=O)N2CC[C@@]3(CCCNC3)C2)cc1 , give its reported activity, negative = inhibition.
Result :: -0.259% (inactive)

Query :: For the compound Cc1cccc(CNc2ncnc3ccc(-c4ccc5c(c4)OCO5)cc23)c1 , give its reported activity, negative = inhibition.
Result :: -13.6% (inactive)

Query :: For the compound COCCn1c(=O)cnc2cnc(Oc3ccc(OC)cc3)nc21 , give its reported activity, negative = inhibition.
Result :: -5.99% (inactive)

Query :: For the compound COc1ccccc1-c1cncnc1NCCc1cnc[nH]1 , give its reported activity, negative = inhibition.
Result :: -11.6% (inactive)

Query :: For the compound Cn1c(=O)c(CCc2ccccc2)nc2cnc(OCc3ccccc3)nc21 , give its reported activity, negative = inhibition.
Result :: -13% (inactive)

Query :: For the compound Clc1ccccc1-c1ccc2ncnc(N3CCNCC3)c2c1 , give its reported activity, negative = inhibition.
Result :: 5.5% (inactive)

Query :: For the compound CN1CCN(c2nc(-c3cccc(C#N)c3)nc3ccccc23)CC1 , give its reported activity, negative = inhibition.
Result :: 21.4% (inactive)

Query :: For the compound CNc1ccnc(-c2ccccc2OC)n1 , give its reported activity, negative = inhibition.
Result :: 16.8% (inactive)

Query :: For the compound COCCNc1ncncc1-c1ccccc1OC , give its reported activity, negative = inhibition.
Result :: 16.6% (inactive)

Query :: For the compound CS(=O)(=O)N1CCC[C@@]2(CCN(c3ccccc3)C2)C1 , give its reported activity, negative = inhibition.
Result :: -2.15% (inactive)

Query :: For the compound O=C(c1ccncc1)N1CCC2(CC1)CN(C(c1ccccc1)c1ccccc1)C2 , give its reported activity, negative = inhibition.
Result :: -10.1% (inactive)

Query :: For the compound CN(C)c1ncc2ncc(=O)n(C[C@H]3CCCO3)c2n1 , give its reported activity, negative = inhibition.
Result :: -10.5% (inactive)

Query :: For the compound Cc1cccc(CNc2ccnc(-c3cccnc3)n2)c1 , give its reported activity, negative = inhibition.
Result :: 1.1% (inactive)
